organism: Homo sapiens; experiment: To identify inhibition of the IFN signalling (Jak-Stat) pathway via expression of an eGFP reporter gene under the control of an IFN-stimulated response element (ISRE) containing MxA promoter.; format: functional; parameters: scale not given: direction of the effect not stated beside the values; details: 30 µM
Label condition met when Percent Effect < 10%; otherwise condition not met.

> print(dat)
                                   compound      categorylabel
1  CCN1CCN(C(=O)c2cc(C(=O)OC)nn2-c2ccccc2)CC1  condition not met
2  CC(=O)NCC(=O)N1CCC2(CC1)CN(c1cccnc1)C(=O)CO2      condition met
3  c1cn(Cc2nnc(C3CCN(c4nccs4)CC3)n2C2CC2)cn1      condition met
4              NC(=O)c1nnn(-c2ccc(Br)cc2)n1  condition not met
5  CCC(CC)c1cc(C(=O)N2CCCC(n3cncn3)C2)on1 (centres undefined)      condition met
6  CCC(=O)Nc1ccc(C(C)NC(=O)COCCOC)cc1 (centres undefined)  condition not met
7   CCn1cc(NC(=O)C2CCN(Cc3ccccc3C#N)CC2)cn1  condition not met
8  Cc1nc(CN2CCCN(C(=O)C3(C#N)CCCCC3)CC2)cs1  condition not met
9     Cc1nnc2n1CCN(Cc1csc(CC(=O)N(C)C)n1)C2      condition met
